# tgt: Ataxin-2 (Homo sapiens) (UniProt Q99700)
# Sequence (Q99700 whole entry): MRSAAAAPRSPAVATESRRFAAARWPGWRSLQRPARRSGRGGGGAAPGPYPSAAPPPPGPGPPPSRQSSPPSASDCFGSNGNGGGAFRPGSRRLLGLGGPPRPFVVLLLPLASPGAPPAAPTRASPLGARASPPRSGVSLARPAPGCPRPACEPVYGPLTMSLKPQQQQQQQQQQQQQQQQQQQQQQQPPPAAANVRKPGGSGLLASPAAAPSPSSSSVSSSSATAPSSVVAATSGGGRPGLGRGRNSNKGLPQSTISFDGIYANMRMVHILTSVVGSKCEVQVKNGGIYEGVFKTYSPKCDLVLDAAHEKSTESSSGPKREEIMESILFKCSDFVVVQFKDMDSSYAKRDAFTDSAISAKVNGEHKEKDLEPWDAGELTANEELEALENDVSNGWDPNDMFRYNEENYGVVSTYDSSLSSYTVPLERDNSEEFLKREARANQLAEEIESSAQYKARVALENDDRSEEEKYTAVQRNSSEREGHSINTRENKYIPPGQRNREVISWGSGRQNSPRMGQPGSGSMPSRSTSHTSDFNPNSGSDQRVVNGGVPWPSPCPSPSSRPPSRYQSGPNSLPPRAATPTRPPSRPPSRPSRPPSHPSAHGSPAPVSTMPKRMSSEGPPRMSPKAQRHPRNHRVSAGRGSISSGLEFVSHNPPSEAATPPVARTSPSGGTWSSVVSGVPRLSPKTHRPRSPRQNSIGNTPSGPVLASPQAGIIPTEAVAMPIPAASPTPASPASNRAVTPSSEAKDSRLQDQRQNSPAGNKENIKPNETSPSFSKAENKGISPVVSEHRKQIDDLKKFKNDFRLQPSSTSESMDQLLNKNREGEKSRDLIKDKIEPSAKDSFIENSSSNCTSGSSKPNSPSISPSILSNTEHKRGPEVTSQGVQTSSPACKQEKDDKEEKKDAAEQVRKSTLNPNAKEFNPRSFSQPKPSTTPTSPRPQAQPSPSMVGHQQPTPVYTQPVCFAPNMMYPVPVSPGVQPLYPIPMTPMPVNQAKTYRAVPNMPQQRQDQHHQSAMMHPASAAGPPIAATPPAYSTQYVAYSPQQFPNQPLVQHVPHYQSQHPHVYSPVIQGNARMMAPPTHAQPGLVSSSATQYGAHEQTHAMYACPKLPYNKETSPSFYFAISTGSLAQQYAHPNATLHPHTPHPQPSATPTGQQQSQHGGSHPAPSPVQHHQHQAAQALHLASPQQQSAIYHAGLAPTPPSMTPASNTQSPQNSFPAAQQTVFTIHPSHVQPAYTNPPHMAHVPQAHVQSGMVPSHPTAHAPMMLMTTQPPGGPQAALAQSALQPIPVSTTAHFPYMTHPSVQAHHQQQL
# assay-protocol: qHTS for Inhibitors of ATXN expression.
# Assay type: functional
Among all 400,000 compounds or so, about 2,100 (0.53%) were called active. Inconclusive results (about 14%) are left out. Only a selection was taken, and actives are over-represented in it overall.
measured-attribute: outcome

Previously resolved entries follow.
# smiles-input, outcome
measured = [
    ("Oc1nc2cc3ccccc3cc2nc1C(F)(F)F", "inactive"),
    ("Cc1c(O[C@@H]2O[C@H](CO)[C@@H](O)[C@H](O)[C@H]2O)ccc2c1oc(=O)c1ccccc12", "inactive"),
    ("O=C(COc1ccc(S(=O)(=O)N2CCOCC2)cc1Cl)NCc1ccc2c(c1)OCO2", "inactive"),
    ("FC(F)(F)c1cc(-c2cccs2)nc2ncnn12", "inactive"),
    ("O=C(COC(=O)CCSc1ccccc1Cl)NCc1ccco1", "inactive"),
]

Request: I'd like to know its outcome. The molecule in question is C=CS(=O)(=O)c1c2cc(OC)ccc2nc2ccc(OC)cc12
Response: inactive

###

# tgt: Ataxin-2 (Homo sapiens)
# assay-protocol: qHTS for Inhibitors of ATXN expression.
# Format: functional
The whole screen tested about 400,000 compounds, of which about 2,100 (0.53%) were called active. About 14% were inconclusive and are not listed. How the calls were made is not given here. This is one part of a sample in which actives are shown more often than they occur.
Log the outcome using a class from True = active, False = inactive

# molecule, assigned-category
data = [
    ("Cc1cc(NC(=O)CSc2nc3c(C)cccc3cc2C#N)no1", "False"),
    ("CC1=C(C(=O)N2CCCCCC2)CC(CC(=O)NCCCCc2ccccc2)C(=O)N1Cc1ccccc1 (stereo unspecified)", "True"),
    ("O=C(c1ccco1)N1CCN(Cc2cc(=O)oc3cc(O)ccc23)CC1", "False"),
    ("CCOc1ccc2nc(NCCCNC(=O)c3cc(OC)c(OC)c(OC)c3)c(C#N)cc2c1", "False"),
    ("Cc1sc2ncn(CC(=O)NCCCC(=O)N3CCN(Cc4ccc5c(c4)OCO5)CC3)c(=O)c2c1C", "False"),
    ("COc1ccccc1C(=O)Nc1cccc(N2CCC(NCc3cnn(-c4ccccc4)n3)CC2)c1", "True"),
]

Request: Please state the recorded outcome for this molecule: CC1=C(C(=O)N(C(C)C)C(C)C)CC(CC(=O)NCc2cccc3ccccc23)C(=O)N1CCC1=CCCCC1 (stereo unspecified)
Response: True

Request: And then CC(C)CN(CC(C)C)C(=O)c1cc2c(=O)n3ccccc3nc2s1 , what is it?
Response: False

###

# tgt: Ataxin-2 (Homo sapiens) (UniProt Q99700)
# assay-protocol: qHTS for Inhibitors of ATXN expression.
# Format: functional
The whole screen tested about 400,000 compounds, of which about 2,100 (0.53%) were called active. Another 14% or so got no clear call; they are omitted. The sample holds actives, similar compounds and a random draw of the others, so the mix is not that of the screen.
measured-attribute: Potency

Recorded Potency, per entry:
# compound, result
data = [
    ("Cc1ccc(-c2nn3c(C)nnc3s2)cc1NC(=O)c1ccc(-c2ccc(Cl)cc2Cl)o1", "8.91 µM (active)"),
    ("CCN(CC)CCN1C(=O)/C(=C\\c2ccc(Cl)c([N+](=O)[O-])c2)S/C1=N\\c1ccc(OC)cc1", "28.2 µM (active)"),
    ("O=C1c2cccc3c(N4CCCCC4)ccc(c23)C(=O)N1c1ccc(O)cc1", "inactive"),
    ("COc1cc(C(=O)Nc2ccc(Br)cc2C(=O)c2cc(OC)c(OC)c(OC)c2)cc(OC)c1OC", "inactive"),
    ("C=CCN1C(=O)/C(=C/c2ccc(OC)cc2)S/C1=N/c1nccs1", "inactive"),
]

Request: Sample Cc1nnc2ccc(-c3ccc(NC(=O)c4ccco4)cc3)nn12 — what was its Potency?
Response: inactive

Request: Quick one: CCC(C(=O)NCc1cccc(C)c1)n1nc(C)c2c(C)n(-c3ccccc3)nc2c1=O (stereo not given)
Response: inactive

Request: One more compound: CNc1ccc(Br)cc(C(=O)/C=C/c2cc(OC)ccc2OC)c1=O
Response: 39.8 µM (active)

Request: Same read-out for CNc1ccc(Br)cc(C(=O)/C=C/c2cccc(OC)c2)c1=O ?
Response: 28.2 µM (active)

Request: What do we get for CCCn1nc(NC(=O)C(C)(C)C)c2cc3cc(OC)ccc3nc21 ?
Response: inactive

Entry source: ChEMBL document CHEMBL1201862
